Assay: gradient 5% acetonitrile 3 min, to 50% in 2 min, to 85% in 15 min, held 3 min, 100 µL/min
Settings: column: Zorbax Extend-C18 2.1 x 50 mm; eluents: water / acetonitrile, 0.1% formic acid
readoutName: RP-LC retention time
Number first, unit second.

Hello, I would appreciate it if you could give RP-LC retention time for each entry below.
1. CC(=O)N1c2ccc(S(=O)(=O)N3CCCCC3)cc2CC1C(=O)Nc1c(C)cc(C)cc1C (centres undefined)
2. COc1ccccc1CNC(=O)c1cn2ccccc2n1
3. Cn1cc(C(F)(F)F)nc1-c1ccc(OCC(O)CNCCOc2ccc(O)c(C(N)=O)c2)cc1 (centres undefined)
4. Cc1cccc(NC(=O)Cn2c(=O)n(-c3ccc(F)cc3)c3ncccc32)c1C

## Output
955 s
665 s
710 s
880 s

Hello, I would appreciate it if you could give RP-LC retention time for each entry below.
1. Cc1cccc(CN2CCCn3nc(C(=O)NC(C)Cc4ccco4)cc3C2=O)c1 (centres undefined)
2. Cc1cc(N2CCCC2)nc(N2CCN(C(=O)c3ccc(C(C)(C)C)cc3)CC2)n1
3. COc1ccc(C2(C(=O)N3CCC4(CC3)N(C)C(=O)CS4=O)CC2)cc1 (centres undefined)
4. CCCC1c2nccn2CCCN1C(=O)c1cccn1C (centres undefined)
5. Cc1ccc2nc(-c3cccc(Cl)c3)c(Nc3ccccc3C)n2c1

## Output
["919 s", "813 s", "636 s", "599 s", "807 s"]

* * *

Assay: gradient 5% acetonitrile 3 min, to 50% in 2 min, to 85% in 15 min, held 3 min, 100 µL/min
Settings: column: Zorbax Extend-C18 2.1 x 50 mm; eluents: water / acetonitrile, 0.1% formic acid
For each entry below, report its RP-LC retention time value.

Examples with their reported RP-LC retention time follow.
CC(=O)c1ccc(NC(=O)NC2CCN(c3nc4ccccc4n(C)c3=O)CC2)cc1	748 s
Cc1cccc(-c2nc3nc(C)cc(N(CCO)Cc4ccccc4)n3n2)c1	815 s
O=C(CN1CCCc2nc(C3CC3)ncc2C1=O)NC1CCCCC1	723 s
O=C(Nc1cccc(Br)c1)C(=O)c1c[nH]c2ccccc12	1060 s
CCOc1ccccc1NC(=O)c1cc2c(=O)n(CC(C)C)c3ccccc3n2n1	1350 s
Cc1ccn2cc(C(=O)NC3CCCCC3)nc2c1	627 s
NC(=O)C1CCN(C(=O)Cc2cc(-c3ccc(F)cc3)on2)CC1	630 s
O=C(C1CCN(c2cnc3nccnc3c2)CC1)N1CCN(c2cccc(Cl)c2)CC1	833 s

Hello, I would appreciate it if you could give RP-LC retention time for each entry below.
1. COc1ccc(CC(=O)N2C[C@@H]3C[C@H]2C[C@@H]3NC(=O)c2cccnc2)cc1Cl
2. COc1ccc(Cl)cc1NC(=O)CSc1nnc2c3cc(-c4ccc(C)cc4)nn3ccn12
3. c1cc(-c2noc(C3CC3)n2)cc(N2CCOCC2)n1
4. CCN1C(=O)COc2ccc(-c3nc(NC(=O)c4cccs4)sc3C)cc21
5. Cc1ccc2ncn(C3CCN(S(=O)(=O)c4ccccc4F)CC3)c(=O)c2c1
6. O=S(=O)(c1ccccc1Br)N1CCc2nc(-c3ccc(F)cc3)ncc2C1
7. Cc1oc2cc3oc(=O)c(CCC(=O)N4CCN(c5ccccn5)CC4)c(C)c3cc2c1C
8. Cc1nc2cc(N3CCC(C(=O)NCc4ccc5c(c4)OCO5)CC3)cnc2nc1C

## Output
["614 s", "1040 s", "695 s", "990 s", "940 s", "1130 s", "682 s", "699 s"]

Hello, I would appreciate it if you could give RP-LC retention time for each entry below.
1. CC1=C(c2ccc(F)cc2)S(=O)(=O)N=C1N1CCCN(C(=O)c2cccnc2)CC1
2. Cc1ccc(NC(=O)N2CCN(Cc3nc4cc(C)ccc4o3)CC2)cc1
3. Cc1ccccc1CNC(=O)C1(C)Oc2cccnc2NC1=O (centres undefined)

## Output
1. 713 s
2. 725 s
3. 702 s

* * *

Test: gradient 5% acetonitrile 3 min, to 50% in 2 min, to 85% in 15 min, held 3 min, 100 µL/min
Conditions: column: Zorbax Extend-C18 2.1 x 50 mm; eluents: water / acetonitrile, 0.1% formic acid
For each entry below, report its RP-LC retention time value.
Give bare numbers, in s.

Examples with their reported RP-LC retention time follow.
O=C([C@@H]1C[C@H](F)CN1C(=O)NCc1ccco1)N1CCCCC1	631
CC1CCCN(c2ccn3c(=O)n(CC(=O)Nc4ccc(F)c(Cl)c4)nc3n2)C1 (stereo not given)	834
CC1CCCN(S(=O)(=O)c2ccc(C(=O)Nc3nc4c(s3)CCc3ccccc3-4)cc2)C1 (stereo not given)	1260

Hello, I would appreciate it if you could give RP-LC retention time for each entry below.
1. CCOc1ccc(N2C(=O)C3N=NN(Cc4nc(-c5ccc(OC(C)C)cc5)no4)C3C2=O)cc1 (stereo not given)
2. Cc1ccc(-c2nocc2CCC(=O)NCc2ccc(F)cc2)cc1

## Output
1: 1120; 2: 919

* * *

Assay: gradient 5% acetonitrile 3 min, to 50% in 2 min, to 85% in 15 min, held 3 min, 100 µL/min
Conditions: column: Zorbax Extend-C18 2.1 x 50 mm; eluents: water / acetonitrile, 0.1% formic acid
readoutName: RP-LC retention time (s)
Numbers only, in s.

Hello, I would appreciate it if you could give RP-LC retention time for each entry below.
1. Cc1ccc(NC(=O)C2CCN(S(=O)(=O)c3ccc4[nH]c(=O)sc4c3)CC2)cc1Cl
2. Cc1nnc(NC(=O)CN2CC(c3nc(C4CC4)no3)C2)s1
3. CNC(=O)c1noc([C@@H]2CC(F)(F)CN2C(=O)C2CC=CC2)n1
4. COc1ccccc1CNc1ncnc2c1CCC2
5. CCC1Oc2ccc(S(=O)(=O)N3CCC(C(=O)NCc4ccccc4C)CC3)cc2NC1=O (stereo not given)
6. CCOc1ccc(NC(=O)Nc2c(-c3cccc(C)c3)nc3ccccn23)cc1
7. CCCN(CC1CCOC1)S(=O)(=O)c1cc(F)ccc1C (stereo not given)

## Output
[904, 537, 698, 621, 872, 697, 943]

* * *

Assay: gradient 5% acetonitrile 3 min, to 50% in 2 min, to 85% in 15 min, held 3 min, 100 µL/min
Conditions: column: Zorbax Extend-C18 2.1 x 50 mm; eluents: water / acetonitrile, 0.1% formic acid
Where RP-LC retention time equals or exceeds 800 s, the correct label is true; where it does not, the label is false.

Cc1c(Cl)cccc1NC(=O)C1CCN(c2cc(-n3ccnc3C)ncn2)CC1	false

## Input Given the entry CCC1CCCCN1C(=O)CSc1nc2c3cc(OC)ccc3n(C)c2c(=O)n1CC (centres undefined) , answer whether its RP-LC retention time meets or surpasses 800 s.
## Output true

## Input Given the entry `O=C(CSc1nnc(CNC(=O)c2ccc(F)cc2)o1)NCc1ccc2c(c1)OCO2` , answer whether its RP-LC retention time meets or surpasses 800 s.
## Output false

* * *

Assay: gradient 5% acetonitrile 3 min, to 50% in 2 min, to 85% in 15 min, held 3 min, 100 µL/min
Settings: column: Zorbax Extend-C18 2.1 x 50 mm; eluents: water / acetonitrile, 0.1% formic acid
For each entry below, report its RP-LC retention time value.
Numbers only, in s.

Hello, I would appreciate it if you could give RP-LC retention time for each entry below.
1. O=C(Nc1ccc(Br)cc1F)N1CCN(Cc2ccc3nccnc3c2)CC1
2. Cc1nc(N2CCN(c3ccccn3)CC2)nc2c1C(=O)CC(c1cccs1)C2 (stereo not given)
3. Cc1ccnc(C(=O)Nc2cccc(Cl)c2Cl)n1

## Output
627
732
866

Hello, I would appreciate it if you could give RP-LC retention time for each entry below.
1. COc1ccc(OCC(=O)Nc2ccc3c(c2)N(C(=O)c2ccco2)CCC3)cc1
2. CCOc1ccc(-c2nc(-c3ccc4nnn(CC)c4c3)no2)cc1

## Output
861
1140

* * *

Test: gradient 5% acetonitrile 3 min, to 50% in 2 min, to 85% in 15 min, held 3 min, 100 µL/min
Settings: column: Zorbax Extend-C18 2.1 x 50 mm; eluents: water / acetonitrile, 0.1% formic acid
For each entry below, report its RP-LC retention time value.
Answers are plain numbers, in s.

Hello, I would appreciate it if you could give RP-LC retention time for each entry below.
1. Fc1cnccc1CN1CC[C@@H]2CN(Cc3ccccc3)[C@@H]2C1
2. COc1ccc(Cl)cc1S(=O)(=O)N1CCC(OC2CCN(C)CC2)CC1
3. CCSc1nc2ccc(NS(=O)(=O)c3ccc(F)c(Cl)c3)cc2s1
4. CCC(=O)N1CCc2cc(C)c(S(=O)(=O)NC3CCCC3)cc21
5. CC(C)C(=O)N1CCc2c([nH]c3ccccc23)C12C(=O)N(C)c1ccc(Br)cc12 (stereo not given)

## Output
[597, 791, 1110, 869, 976]
